Experimental Details: self-splicing fitness, log relative to wild type (ln ratio); higher = more splicing; Tetrahymena group I intron in knt gene, E. coli kanamycin selection, DiMSum; sequences stand for … in CUCUCU…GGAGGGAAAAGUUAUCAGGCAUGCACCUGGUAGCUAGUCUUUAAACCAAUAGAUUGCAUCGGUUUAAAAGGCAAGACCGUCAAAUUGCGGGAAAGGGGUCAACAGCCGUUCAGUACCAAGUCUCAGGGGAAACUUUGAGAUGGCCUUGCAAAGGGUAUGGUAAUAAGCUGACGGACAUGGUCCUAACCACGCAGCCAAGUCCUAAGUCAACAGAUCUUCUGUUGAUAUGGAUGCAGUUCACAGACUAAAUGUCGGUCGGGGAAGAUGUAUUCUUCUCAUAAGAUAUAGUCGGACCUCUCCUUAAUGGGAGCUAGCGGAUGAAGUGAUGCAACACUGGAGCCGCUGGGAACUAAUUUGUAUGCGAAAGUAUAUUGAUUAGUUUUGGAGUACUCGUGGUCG;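 note: selection with 25 µg/mL kanamycin versus none on LB agar overnight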
Condition Context: 37 °C
Use 1 when the recorded self-splicing fitness (ln) is no lower than -2; use -1 when it is lower.

For orientation, consider the following solved cases.
Record Sequence	Classification
GUACAGCAAUAUUACGGCUU	1
GUCAAGCAAUAUUACGCCUC	1
CCAGAGCAAUAUUACGUUCC	-1

Query :: Quick check: does `CUGCAGCAAUAUUACGGUGG` have self-splicing fitness (ln) greater than or equal to -2?
Result :: -1

Query :: Quick check: does `CACUAGCAAUAUUACGUCGA` have self-splicing fitness (ln) greater than or equal to -2?
Result :: 1

Query :: Quick check: does `GCGCAGCAAUAUUACGGGUU` have self-splicing fitness (ln) greater than or equal to -2?
Result :: 1

Query :: Quick check: does `UCAAAGCAAUAUUACGGCGG` have self-splicing fitness (ln) greater than or equal to -2?
Result :: 1

Query :: Quick check: does `CACAAGCAAUAUUACGGGGG` have self-splicing fitness (ln) greater than or equal to -2?
Result :: -1

###

Experimental Details: self-splicing fitness, log relative to wild type (ln ratio); higher = more splicing; Tetrahymena group I intron in knt gene, E. coli kanamycin selection, DiMSum; sequences stand for … in CUCUCU…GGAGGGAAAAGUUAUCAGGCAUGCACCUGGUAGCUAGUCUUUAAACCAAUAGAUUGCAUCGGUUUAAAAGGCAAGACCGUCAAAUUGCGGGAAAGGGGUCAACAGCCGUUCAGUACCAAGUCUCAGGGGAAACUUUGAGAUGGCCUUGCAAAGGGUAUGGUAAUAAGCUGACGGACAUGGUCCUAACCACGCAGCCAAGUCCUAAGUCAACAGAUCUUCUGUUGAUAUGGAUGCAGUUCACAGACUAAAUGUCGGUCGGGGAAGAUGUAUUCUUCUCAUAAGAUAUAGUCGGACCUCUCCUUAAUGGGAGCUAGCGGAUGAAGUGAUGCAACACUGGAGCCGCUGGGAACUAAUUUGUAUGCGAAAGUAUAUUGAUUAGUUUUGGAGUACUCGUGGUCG
Condition Context: 37 °C
Reported Property: self-splicing fitness (ln)
// return a plain number; no unit text

Record excerpt, results attached:
Record Sequence	self-splicing fitness (ln)
ACACAGCAAUAUUACGACUC	-0.631
UUCCAGCAAUAUUACGUGCA	-1.11
UGAUAGCAAUAUUACGUAGG	-0.583

Query :: Given the sequence `AAUAAGCAAUAUUACGGCGA` , what is its reported self-splicing fitness (ln)?
Result :: -0.274

Query :: Given the sequence `CCAAAGCAAUAUUACGGUAA` , what is its reported self-splicing fitness (ln)?
Result :: -2.91

Query :: Given the sequence `GAUCAGCAAUAUUACGUAAC` , what is its reported self-splicing fitness (ln)?
Result :: -0.643

Query :: Given the sequence `GAGCAGCAAUAUUACGCUAA` , what is its reported self-splicing fitness (ln)?
Result :: -0.144

Query :: Given the sequence `UACUAGCAAUAUUACGUAGG` , what is its reported self-splicing fitness (ln)?
Result :: -1.69

Query :: Given the sequence `AUCUAGCAAUAUUACGACUG` , what is its reported self-splicing fitness (ln)?
Result :: -1.07

Query :: Given the sequence `AGCAAGCAAUAUUACGUUAC` , what is its reported self-splicing fitness (ln)?
Result :: -2.38

Query :: Given the sequence `GUAAAGCAAUAUUACGUCUU` , what is its reported self-splicing fitness (ln)?
Result :: 0.291

Query :: Given the sequence `GUCAAGCAAUAUUACGCAUA` , what is its reported self-splicing fitness (ln)?
Result :: -0.367

Query :: Given the sequence `CGCGAGCAAUAUUACGAGCA` , what is its reported self-splicing fitness (ln)?
Result :: -0.102

Query :: Given the sequence `CAAGAGCAAUAUUACGCCCG` , what is its reported self-splicing fitness (ln)?
Result :: -1.03

Query :: Given the sequence `AGUGAGCAAUAUUACGGGGU` , what is its reported self-splicing fitness (ln)?
Result :: -2.67

Query :: Given the sequence `UACUAGCAAUAUUACGUCGC` , what is its reported self-splicing fitness (ln)?
Result :: -3.62

###

Experimental Details: self-splicing fitness, log relative to wild type (ln ratio); higher = more splicing; Tetrahymena group I intron in knt gene, E. coli kanamycin selection, DiMSum; sequences stand for … in CUCUCU…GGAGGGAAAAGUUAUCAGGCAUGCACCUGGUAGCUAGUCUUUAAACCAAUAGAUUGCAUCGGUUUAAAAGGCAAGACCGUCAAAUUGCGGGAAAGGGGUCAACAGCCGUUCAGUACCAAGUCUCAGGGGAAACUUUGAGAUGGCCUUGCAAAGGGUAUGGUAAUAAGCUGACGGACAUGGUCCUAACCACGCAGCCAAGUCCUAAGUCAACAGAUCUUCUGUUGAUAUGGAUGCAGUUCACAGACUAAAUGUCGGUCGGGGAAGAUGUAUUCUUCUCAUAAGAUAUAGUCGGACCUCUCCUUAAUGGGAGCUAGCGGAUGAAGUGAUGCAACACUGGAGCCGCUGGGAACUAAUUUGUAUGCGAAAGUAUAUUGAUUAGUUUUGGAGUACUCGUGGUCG
Condition Context: 30 °C
Collected self-splicing fitness (ln) values appear next to each entry.
// return a plain number; no unit text

Record Sequence	self-splicing fitness (ln)
AAACAGCAAUAUUACGUCGA	-0.86
ACAUAGCAAUAUUACGCUUA	-1.76
UGCCAGCAAUAUUACGAAUA	-2.53
AUUAAGCAAUAUUACGCGCG	-0.63

Query :: Given the sequence `CUUAAGCAAUAUUACGCUGA` , what is its reported self-splicing fitness (ln)?
Result :: -3.94

Query :: Given the sequence `AAUAAGCAAUAUUACGUCAA` , what is its reported self-splicing fitness (ln)?
Result :: -2.29

Query :: Given the sequence `AAGUAGCAAUAUUACGGAUC` , what is its reported self-splicing fitness (ln)?
Result :: -1.17

Query :: Given the sequence `CCCUAGCAAUAUUACGGGCA` , what is its reported self-splicing fitness (ln)?
Result :: -2.16

Query :: Given the sequence `UUCUAGCAAUAUUACGAAAA` , what is its reported self-splicing fitness (ln)?
Result :: -1.6

Query :: Given the sequence `GAAAAGCAAUAUUACGCUGG` , what is its reported self-splicing fitness (ln)?
Result :: -2.57

###

Experimental Details: self-splicing fitness, log relative to wild type (ln ratio); higher = more splicing; Tetrahymena group I intron in knt gene, E. coli kanamycin selection, DiMSum; sequences stand for … in CUCUCU…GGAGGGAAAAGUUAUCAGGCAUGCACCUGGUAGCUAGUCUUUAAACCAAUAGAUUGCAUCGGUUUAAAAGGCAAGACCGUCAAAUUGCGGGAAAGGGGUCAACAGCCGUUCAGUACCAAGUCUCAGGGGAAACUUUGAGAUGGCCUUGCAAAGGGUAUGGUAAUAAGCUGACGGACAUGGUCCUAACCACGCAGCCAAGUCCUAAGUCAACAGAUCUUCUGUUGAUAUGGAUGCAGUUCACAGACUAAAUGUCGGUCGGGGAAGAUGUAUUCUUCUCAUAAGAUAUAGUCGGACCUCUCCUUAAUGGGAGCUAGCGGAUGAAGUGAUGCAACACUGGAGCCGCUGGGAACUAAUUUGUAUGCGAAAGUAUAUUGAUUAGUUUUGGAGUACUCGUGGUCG
Condition Context: 37 °C
Reported Property: self-splicing fitness (ln)

Record excerpt, results attached:
Record Sequence	self-splicing fitness (ln)
CGGAAGCAAUAUUACGGGCU	-3.3
CUCCAGCAAUAUUACGAUGU	-2.9
UUACAGCAAUAUUACGUCUU	-0.819
GAAAAGCAAUAUUACGCUGU	-0.534
AGAGAGCAAUAUUACGUAGG	-2.16

Query :: Given the sequence `GCCUAGCAAUAUUACGGCUU` , what is its reported self-splicing fitness (ln)?
Result :: -1.08

Query :: Given the sequence `CGCCAGCAAUAUUACGUAAG` , what is its reported self-splicing fitness (ln)?
Result :: 0.217

Query :: Given the sequence `GGAUAGCAAUAUUACGGGCA` , what is its reported self-splicing fitness (ln)?
Result :: -0.844

Query :: Given the sequence `GCGUAGCAAUAUUACGCAGC` , what is its reported self-splicing fitness (ln)?
Result :: -2.75

Query :: Given the sequence `GCACAGCAAUAUUACGGAGG` , what is its reported self-splicing fitness (ln)?
Result :: -0.502

Query :: Given the sequence `UGCAAGCAAUAUUACGACUG` , what is its reported self-splicing fitness (ln)?
Result :: 0.37
